Dissociation rate constant (koff) values, listed per item
- targetUnderTest: EGFR extracellular domain (Homo sapiens, UniProt P00533)
- assayName: Affinity test by surface plasmon resonance (Biacore T200, CM5 chip)
- Assay type: binding
- measurementContext: EGFR extracellular domain coupled on CM5 chip, analyte 4-256 nM
measurementType: Dissociation rate constant (koff)

molecule: rLZ-8 (K16A/K41A): alanine mutant of rLZ-8 at K16 and K41 (protein) MSDTALIFRLAWDVKALSFDYTPNWGRGNPNNFIDTVTFPAVLTDKAYTYRVAVSGRNLGVKPSYAVESDGSQKVNFLEYNSGYGIADTNTIQVFVVDPDTNNDFIIAQWN
reading: 0.000273 s⁻¹

molecule: rLZ-8 (R9A): alanine mutant of rLZ-8 at R9 (protein) MSDTALIFALAWDVKKLSFDYTPNWGRGNPNNFIDTVTFPKVLTDKAYTYRVAVSGRNLGVKPSYAVESDGSQKVNFLEYNSGYGIADTNTIQVFVVDPDTNNDFIIAQWN
reading: 0.000528 s⁻¹

molecule: rLZ-8 (K16A/S18A/K41A/D45A): alanine mutant of rLZ-8 at K16, S18, K41 and D45 (protein) MSDTALIFRLAWDVKALAFDYTPNWGRGNPNNFIDTVTFPAVLTAKAYTYRVAVSGRNLGVKPSYAVESDGSQKVNFLEYNSGYGIADTNTIQVFVVDPDTNNDFIIAQWN
reading: 0.00423 s⁻¹
